Every entry's value here was drawn from ChEMBL document CHEMBL1128050.

target: GABA-A receptor; anion channel; assay: Displacement of [3H]flunitrazapam from GABA-A central benzodiazepine receptor of guinea pig cerebellum; assay type: tissue-based, Cavia porcellus
parameterMeasured: pIC50
pIC50 field: float, defined as -log10 of concentration (mol/L).

Recorded pIC50 for `N#Cc1ccc2c(c1)ncn2-c1ccc2[nH]cc(C[C@H]3CCCN3CC3CC3)c2c1` on GABA-A receptor; anion channel was 7.57

* * *

molecular target: GABA-A receptor; anion channel; assay: Binding affinity to the benzodiazepine receptor assayed using 0.5 nM [3H]flunitrazapam as radioligand in guinea pig cerebellum; type: tissue-based, Cavia porcellus
Exercise: state measured IC50 for each of the compounds provided.
All answers are understood in µM, so give the number only.

IC50 measured on `N#Cc1ccc2c(c1)ncn2-c1ccc2[nH]cc(C3CCNCC3)c2c1` = 0.00024

Form field IC50, entry `N#Cc1ccc2c(c1)ncn2-c1ccc2[nH]cc(C3=CCNCC3)c2c1` : 0.00046

Record `O=Cc1c[nH]c2ccc(-n3cnc4cccnc43)cc12` , field IC50: 0.209

`Cc1ccc2c(c1)ncn2-c1ccc2[nH]cc(C3=CCN(C(=O)OC(C)(C)C)CC3)c2c1` yielded IC50 of 0.031

Reported IC50 for `N#Cc1ccc2c(c1)ncn2-c1ccc2[nH]cc(C=O)c2c1` was 0.019

The value of IC50 measured for the compound `CN1CCC[C@@H]1Cc1c[nH]c2ccc(-n3cnc4cc(C#N)cnc43)cc12` turned out to be 0.0098

// field: IC50; key: `COCCN1CCC[C@@H]1Cc1c[nH]c2ccc(-n3cnc4cc(C#N)ccc43)cc12` ; value = 0.024

For this compound ( `CN1CCC[C@@H]1Cc1c[nH]c2ccc(-n3cnc4cccnc43)cc12` ), measured IC50 is 0.027

Form field IC50, entry `CN1CCC[C@@H]1Cc1c[nH]c2ccc(-n3cnc4cc(CN)ccc43)cc12` : 0.013
